Test system: DU-4475
Experiment: normalised response (% of control), CellTiter-Glo; higher = more viable cells (100 = DMSO, 0 = benzethonium chloride kill control)
Conditions: incubation time: 72 h
Classify as follows. Reported normalised response greater than or equal to 60%: TRUE. Reported normalised response below: FALSE.

Known results for compounds:
{"columns": ["COMPOUND", "TARGET_OR_TEST_SYSTEM", "CATEGORY"],
 "data": [
  ["CC(C)(C#N)c1cc(Cn2cncn2)cc(C(C)(C)C#N)c1 [Anastrozole] (10000 nM)", "DU-4475", "TRUE"],
  ["O=C1NC(=O)[C@@H](c2cn3c4c(cccc24)CCC3)[C@@H]1c1c[nH]c2ccccc12 [Tivantinib] (1000 nM)", "DU-4475", "TRUE"],
  ["CN(C)CCN1C(=O)c2cccc3cc(N)cc(c23)C1=O [Amonafide] (10000 nM)", "DU-4475", "FALSE"],
  ["Nc1ncnc2c1c(COc1cccc(Cl)c1)nn2C1CCOCC1 (10000 nM)", "DU-4475", "TRUE"],
  ["CC[C@]1(O)C[C@H]2CN(CCc3c([nH]c4ccccc34)[C@@](C(=O)OC)(c3cc4c(cc3OC)N(C=O)[C@H]3[C@@](O)(C(=O)OC)[C@H](OC(C)=O)[C@]5(CC)C=CCN6CC[C@]43[C@@H]65)C2)C1 [Vincristine] (1000 nM)", "DU-4475", "FALSE"]
]}

Can CO[C@H]1C[C@@H]2CC[C@@H](C)[C@@](O)(O2)C(=O)C(=O)N2CCCC[C@H]2C(=O)O[C@H]([C@H](C)C[C@@H]2CC[C@@H](OCCO)[C@H](OC)C2)CC(=O)[C@H](C)/C=C(\C)[C@@H](O)[C@@H](OC)C(=O)[C@H](C)C[C@H](C)/C=C/C=C/C=C/1C [Everolimus] (100 nM) be said to have normalised response at or above 60%? TRUE

Can CN(C)C[C@@H]1CCn2cc(c3ccccc32)C2=C(C(=O)NC2=O)c2cn(c3ccccc23)CCO1 [Ruboxistaurin] (10000 nM) be said to have normalised response at or above 60%? TRUE

###

Test system: MDA-MB-436
Conditions: 72 h
REPORTED_METRIC: EC50, CellTiter-Glo (µM)
Reply with just the number (in µM).

Recorded EC50, CellTiter-Glo, per entry:
{"columns": ["GIVEN_SMILES", "DATA_VALUE"],
 "data": [
  ["CCCCCCCCc1ccc(CCC(N)(CO)CO)cc1", 4.81],
  ["Cn1c(=O)n(-c2ccc(C(C)(C)C#N)cc2)c2c3cc(-c4cnc5ccccc5c4)ccc3ncc21", 0.00368],
  ["Cn1cncc1[C@@](N)(c1ccc(Cl)cc1)c1ccc2c(c1)c(-c1cccc(Cl)c1)cc(=O)n2C", 0.607]
]}

Alright, here's another molecule for you.
So what's the measured EC50, CellTiter-Glo for this one? "CN(C)C[C@@H]1CCn2cc(c3ccccc32)C2=C(C(=O)NC2=O)c2cn(c3ccccc23)CCO1" 2.67

###

Reported normalised response values are given for each entry in this list.
Test system: HDQ-P1
Assay: normalised response (% of control), CellTiter-Glo; higher = more viable cells (100 = DMSO, 0 = benzethonium chloride kill control)
Conditions: incubation time: 72 h
Reply with just the number (in %).

So what's the measured normalised response for this one? COc1ccc(-c2ccc3c(N4CCOC[C@@H]4C)nc(N4CCOC[C@@H]4C)nc3n2)cc1CO [AZD8055] (10 nM) 74.6

###

Tested on: HDQ-P1
Assay: normalised response (% of control), CellTiter-Glo; higher = more viable cells (100 = DMSO, 0 = benzethonium chloride kill control)
Conditions: incubation time: 72 h
REPORTED_METRIC: normalised response (%)
Reply with just the number (in %).

Recorded normalised response, per entry:
{"columns": ["COMPOUND", "TARGET_OR_TEST_SYSTEM", "MEASUREMENT_UNIT", "DATA_VALUE"],
 "data": [
  ["C[C@]12CC[C@H](O)CC1=CC[C@@H]1[C@@H]2CC[C@]2(C)C(c3cccnc3)=CC[C@@H]12 [Abiraterone] (5000 nM)", "HDQ-P1", "%", 104],
  ["CC[C@]1(O)C[C@H]2CN(CCc3c([nH]c4ccccc34)[C@@](C(=O)OC)(c3cc4c(cc3OC)N(C=O)[C@H]3[C@@](O)(C(=O)OC)[C@H](OC(C)=O)[C@]5(CC)C=CCN6CC[C@]43[C@@H]65)C2)C1 [Vincristine] (1000 nM)", "HDQ-P1", "%", 71.5],
  ["Nc1nc(OCc2cc(Br)cs2)c2[nH]cnc2n1 [Lomeguatrib] (10000 nM)", "HDQ-P1", "%", 96.5],
  ["CNNCc1ccc(C(=O)NC(C)C)cc1 [Procarbazine] (10000 nM)", "HDQ-P1", "%", 104],
  ["Cc1ccc(NC(=O)c2ccc(CN3CCN(C)CC3)cc2)cc1Nc1nccc(-c2cccnc2)n1 [Imatinib] (10000 nM)", "HDQ-P1", "%", 111]
]}

Alright, here's another compound for you.
Entry CO[C@H]1C[C@@H]2CC[C@@H](C)[C@@](O)(O2)C(=O)C(=O)N2CCCC[C@H]2C(=O)O[C@H]([C@H](C)C[C@@H]2CC[C@@H](OCCO)[C@H](OC)C2)CC(=O)[C@H](C)/C=C(\C)[C@@H](O)[C@@H](OC)C(=O)[C@H](C)C[C@H](C)/C=C/C=C/C=C/1C [Everolimus] (100 nM) , system HDQ-P1: what normalised response was measured? 72.9

###

Tested on: HCC1937
Experiment: normalised viability (% of control), CellTiter-Blue; higher = more viable cells (about 100 = DMSO control)
Conditions: 100 nM; incubation time: 72 h
Reported normalised viability values are given for each entry in this list.
Reply with just the number (in %).

{"columns": ["COMPOUND", "TARGET_OR_TEST_SYSTEM", "DATA_VALUE"],
 "data": [
  ["Cn1cncc1[C@@](N)(c1ccc(Cl)cc1)c1ccc2c(c1)c(-c1cccc(Cl)c1)cc(=O)n2C [Tipifarnib]", "HCC1937", 64.9],
  ["COc1ccc(-c2ccc3c(N4CCOC[C@@H]4C)nc(N4CCOC[C@@H]4C)nc3n2)cc1CO [AZD8055]", "HCC1937", 42.6],
  ["CNNCc1ccc(C(=O)NC(C)C)cc1 [Procarbazine]", "HCC1937", 85.3],
  ["CC(C)(C#N)c1cc(Cn2cncn2)cc(C(C)(C)C#N)c1 [Anastrozole]", "HCC1937", 93.1],
  ["CCCCCCCCc1ccc(CCC(N)(CO)CO)cc1 [Fingolimod]", "HCC1937", 99]
]}

Alright, here's another compound for you.
Entry CC[C@]1(O)C[C@H]2CN(CCc3c([nH]c4ccccc34)[C@@](C(=O)OC)(c3cc4c(cc3OC)N(C=O)[C@H]3[C@@](O)(C(=O)OC)[C@H](OC(C)=O)[C@]5(CC)C=CCN6CC[C@]43[C@@H]65)C2)C1 [Vincristine] , system HCC1937: what normalised viability was measured? 17.8

###

Tested on: CAL-120
Assay: drug sensitivity score (DSS), CellTiter-Glo (DSS (AUC-based score)); higher = stronger drug effect (viability inhibition or cytotoxicity); extreme values may be limits of the assay
Conditions: incubation time: 72 h
REPORTED_METRIC: drug sensitivity score
Answer with a number only.

{"columns": ["GIVEN_SMILES", "TARGET_OR_TEST_SYSTEM", "drug sensitivity score"],
 "data": [
  ["CO[C@H]1C[C@@H]2CC[C@@H](C)[C@@](O)(O2)C(=O)C(=O)N2CCCC[C@H]2C(=O)O[C@H]([C@H](C)C[C@@H]2CC[C@@H](OCCO)[C@H](OC)C2)CC(=O)[C@H](C)/C=C(\\C)[C@@H](O)[C@@H](OC)C(=O)[C@H](C)C[C@H](C)/C=C/C=C/C=C/1C", "CAL-120", 8.8],
  ["C[C@]12CC[C@H](O)CC1=CC[C@@H]1[C@@H]2CC[C@]2(C)C(c3cccnc3)=CC[C@@H]12", "CAL-120", 0]
]}

Alright, here's another compound for you.
So what's the measured drug sensitivity score for this one? "Nc1ncnc2c1c(COc1cccc(Cl)c1)nn2C1CCOCC1" 0

###

Test system: SK-BR-3
Assay: normalised viability (% of control), CellTiter-Blue; higher = more viable cells (about 100 = DMSO control)
Conditions: 1000 nM; incubation time: 72 h
REPORTED_METRIC: normalised viability (%)
Reply with just the number (in %).

Recorded normalised viability, per entry:
{"columns": ["MOLECULE", "normalised viability / %"],
 "data": [
  ["CN1CCN(CCOc2cc(OC3CCOCC3)c3c(Nc4c(Cl)ccc5c4OCO5)ncnc3c2)CC1 [Saracatinib]", 90],
  ["Cn1cncc1[C@@](N)(c1ccc(Cl)cc1)c1ccc2c(c1)c(-c1cccc(Cl)c1)cc(=O)n2C [Tipifarnib]", 66.1],
  ["O=C(O)CCCc1ccc(N(CCCl)CCCl)cc1 [Chlorambucil]", 105]
]}

So what's the measured normalised viability for this one? CCCCCCCCc1ccc(CCC(N)(CO)CO)cc1 [Fingolimod] 108

Each recorded value in this set is attributed to the supplement of paper PMC4862054.
